Read-out: Nuclear factor erythroid 2-related factor 2 (Homo sapiens) (UniProt Q16236)
Sequence (Q16236 whole entry, looked up): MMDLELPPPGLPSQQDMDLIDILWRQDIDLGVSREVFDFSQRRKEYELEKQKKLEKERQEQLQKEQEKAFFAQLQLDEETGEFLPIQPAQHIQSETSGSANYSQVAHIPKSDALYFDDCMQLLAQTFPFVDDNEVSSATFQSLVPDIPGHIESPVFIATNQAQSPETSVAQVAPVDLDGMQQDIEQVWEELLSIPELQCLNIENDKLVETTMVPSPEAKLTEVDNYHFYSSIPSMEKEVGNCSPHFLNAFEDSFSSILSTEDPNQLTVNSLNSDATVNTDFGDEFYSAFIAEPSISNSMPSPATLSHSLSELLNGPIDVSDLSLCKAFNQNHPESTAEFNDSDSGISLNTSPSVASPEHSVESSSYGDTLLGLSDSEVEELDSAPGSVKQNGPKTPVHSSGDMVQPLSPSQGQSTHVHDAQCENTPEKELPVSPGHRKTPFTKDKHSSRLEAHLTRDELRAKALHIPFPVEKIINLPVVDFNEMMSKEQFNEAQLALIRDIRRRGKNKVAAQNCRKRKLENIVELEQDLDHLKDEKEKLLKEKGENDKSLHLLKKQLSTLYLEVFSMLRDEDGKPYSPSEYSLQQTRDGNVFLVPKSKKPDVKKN
Test description: LTEA_HepaRG_NFE2L2: Life Technologies and Expression Analysis (LTEA) Assay for Nuclear factor erythroid 2-related factor 2 (NFE2L2) Transcription Factor using HepaRG (AID 2283527)
Condition label: mRNA level, 48 h; actives raise or lower the signal
Calls of active or inactive are those of the source. Rule for the calls: active = hit-call score of the fitted dose curve at least 0.9, where 1 is the maximum; inactive = score below 0.9.
Reported metric: AC50

Worked examples, 6 molecules total:
{"Molecule": "CC(C)CCCCCCOC(=O)CCCCC(=O)OCCCCCCC(C)C", "AC50": "inactive"}
{"Molecule": "CC1=C(/C=C/C(C)=C/C=C/C(C)=C/C(=O)O)C(C)(C)CCC1", "AC50": "20.4 µM (active)"}
{"Molecule": "CCCCC(CC)COC(=O)CCCCC(=O)OCC(CC)CCCC (configuration not stated)", "AC50": "inactive"}
{"Molecule": "CN1CCC[C@H]1c1cccnc1", "AC50": "inactive"}
{"Molecule": "CC[C@H](c1ccc(O)cc1)[C@@H](CC)c1ccc(O)cc1", "AC50": "78.8 µM (active)"}
{"Molecule": "c1ccc2c(c1)ccc1ccccc12", "AC50": "inactive"}

# evaluate next
Field AC50 (entry CCCCCCC(=O)O ) reads inactive
